target: UniProt:P62942
protocol description: PPIase Inhibition Assay
Format: biochemical
condition info: concentration of inhibitor required for 50% inhibition of enzyme activity; FKBP, substrate Succinyl-Ala-Phe-Pro-Phe-para-nitroanilide; TABLE I
Counter-ions that a name gives are not always drawn.
parameter: IC50

Worked examples, 3 compounds total:
>>> measured_value("COc1cc(C(=O)CN2CCC[C@H]2C(=O)N[C@@H](C)c2ccccc2)cc(OC)c1OC [Example 136, Hydrochloride]")
"> 5 µM"
>>> measured_value("CC[C@H](C)[C@H](NC(=O)[C@@H]1CCCN1CC(=O)NCCO)C(=O)NCc1ccccc1")
"> 5 µM"
>>> measured_value("CC[C@H](C)[C@H](NC(=O)[C@@H]1CCCN1CC(=O)N1CCC(c2ccccc2)CC1)C(=O)NCc1ccccc1")
"< 5 µM"

Fill blank: measured IC50 of the compound CC[C@H](C)[C@H](NC(=O)[C@@H]1CCCN1CC(=O)c1ccc(F)cc1)C(=O)NCc1ccccc1 is ____.
5 µM

Fill blank: measured IC50 of the compound CC[C@H](C)[C@H](NC(=O)[C@@H]1CCCN1CC(=O)c1cccc(OC(=O)c2ccccc2)c1)C(=O)NCc1ccccc1 is ____.
< 5 µM

Fill blank: measured IC50 of the compound O=C(NCc1ccccc1)[C@H](COCc1ccccc1)NC(=O)[C@@H]1CCCN1CC(=O)C12CC3CC(CC(C3)C1)C2 is ____.
1.3 µM

Fill blank: measured IC50 of the compound CC[C@H](C)[C@H](NC(=O)[C@@H]1CCCN1CC(=O)c1ccc(Cl)cc1)C(=O)NCc1ccccc1 is ____.
< 50 µM

---

target: FKBP (Homo sapiens, UniProt P62942)
Sequence (P62942 whole entry): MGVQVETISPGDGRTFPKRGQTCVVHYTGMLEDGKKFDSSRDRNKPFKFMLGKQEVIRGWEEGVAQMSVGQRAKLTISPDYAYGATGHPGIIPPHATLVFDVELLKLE
protocol description: PPIase Inhibition Assay
Format: biochemical
condition info: concentration of inhibitor required for 50% inhibition of enzyme activity; FKBP, substrate Succinyl-Ala-Phe-Pro-Phe-para-nitroanilide; TABLE I
Structures can show the parent of a compound that is named as a salt.
Listed here: items and their measured IC50.

>>> measured_value("CC[C@H](C)[C@H](NC(=O)[C@@H]1CCCN1CC(=O)C1CCc2ccccc2C1)C(=O)NCc1ccccc1 (some centres unmarked) [Example 43]")
"< 5 µM"
>>> measured_value("COc1cc(C(=O)CN2CCC[C@H]2C(=O)NCC2CCCO2)cc(OC)c1OC (some centres unmarked) [Example 128]")
"> 5 µM"
>>> measured_value("COc1cc(C(=O)CN2CCC[C@H]2C(=O)NCCc2ccccc2)cc(OC)c1OC [Example 121, Hydrochloride]")
"> 5 µM"
>>> measured_value("CC[C@H](C)[C@H](NC(=O)[C@@H]1CCCN1CC(=O)C1(c2ccccc2)CCCCC1)C(=O)NCc1ccccc1 [Example 116]")
"< 5 µM"
>>> measured_value("CC[C@H](C)[C@H](NC(=O)[C@@H]1CCCN1CC(=O)c1cc(OC)ccc1OC)C(=O)NCc1ccccc1 [Example 27]")
"12 µM"
>>> measured_value("CC[C@H](C)[C@H](NC(=O)[C@@H]1CCCN1CC(=O)N1CCN(c2ccccc2)CC1)C(=O)NCc1ccccc1 [Example 77]")
"< 5 µM"
>>> measured_value("CC[C@H](C)[C@H](NC(=O)[C@@H]1CCCN1CC(=O)CC12CC3CC(CC(C)(C3)C1)C2)C(=O)NCc1ccccc1 [Example 46]")
"< 5 µM"
>>> measured_value("CC[C@H](C)[C@H](NC(=O)[C@@H]1CCCCN1CC(=O)C12CC3CC(CC(C3)C1)C2)C(=O)NCc1ccccc1 [Example 36]")
"2.2 µM"
>>> measured_value("CCC(OC(=O)CN1CCC[C@H]1C(=O)N[C@H](C(=O)NCc1ccccc1)[C@@H](C)CC)c1ccccc1 (some centres unmarked) [Example 86]")
"0.88 µM"
>>> measured_value("COc1cc(C(=O)CN2CCC[C@H]2C(=O)NC2CCCCC2)cc(OC)c1OC [Example 145, Hydrochloride]")
"> 5 µM"

Fill blank: measured IC50 of the compound CC[C@H](C)[C@H](NC(=O)[C@@H]1CCCN1CC(=O)C1CCC(C(C)(C)C)CC1)C(=O)NCc1ccccc1 (some centres unmarked) [Example 96] is ____.
< 5 µM

Fill blank: measured IC50 of the compound CC[C@H](C)[C@H](NC(=O)[C@@H]1CCCN1CC(=O)c1c(OC)cccc1OC)C(=O)NCc1ccccc1 [Example 112] is ____.
< 5 µM

Fill blank: measured IC50 of the compound COc1cc(C(=O)CN2CCCC[C@H]2C(=O)N[C@@H](C)c2ccccc2)cc(OC)c1OC [Example 150, Hydrochloride] is ____.
> 5 µM

Fill blank: measured IC50 of the compound COc1cc(C(=O)CN2CCC[C@H]2C(=O)NCC23CC4CC(CC(C4)C2)C3)cc(OC)c1OC [Example 139, Hydrochloride] is ____.
> 5 µM

---

target: FKBP (Homo sapiens)
protocol description: PPIase Inhibition Assay
Format: biochemical
condition info: concentration of inhibitor required for 50% inhibition of enzyme activity; FKBP, substrate Succinyl-Ala-Phe-Pro-Phe-para-nitroanilide; TABLE I
pIC50: −log10 of the molar value. Counter-ions that a name gives are not always drawn.
parameter: pIC50

Worked examples, 5 compounds total:
>>> measured_value("COc1cc(C(=O)CN2CCC[C@H]2C(=O)NCCc2ccccn2)cc(OC)c1OC [Example 124, Dihydrochloride]")
"< 5.30"
>>> measured_value("CC[C@H](C)[C@H](NC(=O)[C@@H]1CCCN1CC(=O)NC1CCCC1)C(=O)NCc1ccccc1")
"< 5.30"
>>> measured_value("CC[C@H](C)[C@H](NC(=O)[C@@H]1CCCN1CC(=O)OCC1(c2ccccc2)CCCCC1)C(=O)NCc1ccccc1")
"< 5.30"
>>> measured_value("CC[C@H](C)[C@H](NC(=O)[C@@H]1CCCN1CC(=O)N1CCC2(CC1)OCCO2)C(=O)NCc1ccccc1")
"> 5.30"
>>> measured_value("O=C(CNC(=O)[C@@H]1CCCN1CC(=O)C12CC3CC(CC(C3)C1)C2)NCc1ccccc1")
5.29

Fill blank: measured pIC50 of the compound CC[C@H](C)[C@H](NC(=O)[C@@H]1CCCN1CC(=O)OC1(C)C2CC3CC(C2)CC1C3)C(=O)NCc1ccccc1 (stereo partly shown) is ____.
6.92

Fill blank: measured pIC50 of the compound CC[C@H](C)[C@H](NC(=O)[C@@H]1CCCN1CC(=O)c1ccccc1OC(=O)c1ccccc1)C(=O)NCc1ccccc1 is ____.
> 5.30

Fill blank: measured pIC50 of the compound O=C(CC(NC(=O)[C@@H]1CCCN1CC(=O)C12CC3CC(CC(C3)C1)C2)c1ccccc1)NCc1ccccc1 (stereo partly shown) is ____.
6.52

Fill blank: measured pIC50 of the compound CC[C@H](C)[C@H](NC(=O)[C@@H]1CCCN1CC(=O)c1ccc(Br)cc1)C(=O)NCc1ccccc1 is ____.
> 5.30

Fill blank: measured pIC50 of the compound COc1cc(C(=O)CN2CCC[C@H]2C(=O)NCCc2ccc(S(N)(=O)=O)cc2)cc(OC)c1OC is ____.
< 5.30

---

target: FKBP (Homo sapiens)
protocol description: PPIase Inhibition Assay
Format: biochemical
condition info: concentration of inhibitor required for 50% inhibition of enzyme activity; FKBP, substrate Succinyl-Ala-Phe-Pro-Phe-para-nitroanilide; TABLE I
Structures can show the parent of a compound that is named as a salt.
parameter: IC50

>>> measured_value("COc1cc(C(=O)CN2CCCC[C@H]2C(=O)NCC2CCCO2)cc(OC)c1OC (stereo partly shown) [Example 148]")
"> 5 µM"
>>> measured_value("CCOC(=O)C1CCCN(C(=O)CN2CCC[C@H]2C(=O)N[C@H](C(=O)NCc2ccccc2)[C@@H](C)CC)C1 (stereo partly shown) [Example 72]")
"< 5 µM"
>>> measured_value("O=C(NCc1ccccc1)[C@H](CC1CCCCC1)NC(=O)[C@@H]1CCCN1CC(=O)C12CC3CC(CC(C3)C1)C2 [Example 64]")
"< 5 µM"
>>> measured_value("CC[C@H](C)[C@H](NC(=O)[C@@H]1CCCN1CC(=O)N1CCCCC1C)C(=O)NCc1ccccc1 (stereo partly shown) [Example 75]")
"< 5 µM"

Fill blank: measured IC50 of the compound CC[C@H](C)[C@H](NC(=O)[C@@H]1CCCN1CC(=O)O)C(=O)NCc1ccccc1 [Example 71] is ____.
> 5 µM

Fill blank: measured IC50 of the compound NC(=O)C[C@H](NC(=O)[C@@H]1CCCN1CC(=O)C12CC3CC(CC(C3)C1)C2)C(=O)NCc1ccccc1 [Example 61] is ____.
< 5 µM

Fill blank: measured IC50 of the compound O=C(NCc1ccccc1)[C@H](Cc1ccccc1)NC(=O)[C@@H]1CCCN1CC(=O)C12CC3CC(CC(C3)C1)C2 [Example 58] is ____.
2.3 µM

Fill blank: measured IC50 of the compound COc1cc(C(=O)CN2CCC[C@H]2C(=O)N2CCC(c3ccccc3)CC2)cc(OC)c1OC [Example 131] is ____.
> 5 µM

Fill blank: measured IC50 of the compound COc1ccc(CNC(=O)[C@@H]2CCCN2CC(=O)c2cc(OC)c(OC)c(OC)c2)cc1 [Example 132, Hydrochloride] is ____.
> 5 µM

Fill blank: measured IC50 of the compound CC[C@H](C)[C@H](NC(=O)[C@@H]1CCCN1CC(=O)OCC=C(C)c1ccccc1)C(=O)NCc1ccccc1 [Example 85] is ____.
< 5 µM

Fill blank: measured IC50 of the compound CC(C)[C@H](NC(=O)[C@@H]1CCCN1CC(=O)C12CC3CC(CC(C3)C1)C2)C(=O)NCc1ccccc1 [Example 56] is ____.
1.2 µM
